- STUDY SYSTEM: 5-HT3AB receptors (Homo sapiens, UniProt O95264+P46098)
- Sequence (P46098 24-478): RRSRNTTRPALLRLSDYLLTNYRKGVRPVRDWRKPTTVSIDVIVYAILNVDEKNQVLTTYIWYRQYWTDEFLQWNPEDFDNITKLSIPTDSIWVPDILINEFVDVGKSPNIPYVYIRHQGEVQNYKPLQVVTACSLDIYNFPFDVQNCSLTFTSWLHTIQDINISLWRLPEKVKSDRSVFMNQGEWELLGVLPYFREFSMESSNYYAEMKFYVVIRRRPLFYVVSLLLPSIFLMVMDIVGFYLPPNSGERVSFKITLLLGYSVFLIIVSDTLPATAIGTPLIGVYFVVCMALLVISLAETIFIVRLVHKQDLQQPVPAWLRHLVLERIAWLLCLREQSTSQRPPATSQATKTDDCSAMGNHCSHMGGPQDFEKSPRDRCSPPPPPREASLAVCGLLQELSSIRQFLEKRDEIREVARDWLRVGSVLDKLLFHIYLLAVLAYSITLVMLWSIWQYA
- Sequence (O95264 22-441): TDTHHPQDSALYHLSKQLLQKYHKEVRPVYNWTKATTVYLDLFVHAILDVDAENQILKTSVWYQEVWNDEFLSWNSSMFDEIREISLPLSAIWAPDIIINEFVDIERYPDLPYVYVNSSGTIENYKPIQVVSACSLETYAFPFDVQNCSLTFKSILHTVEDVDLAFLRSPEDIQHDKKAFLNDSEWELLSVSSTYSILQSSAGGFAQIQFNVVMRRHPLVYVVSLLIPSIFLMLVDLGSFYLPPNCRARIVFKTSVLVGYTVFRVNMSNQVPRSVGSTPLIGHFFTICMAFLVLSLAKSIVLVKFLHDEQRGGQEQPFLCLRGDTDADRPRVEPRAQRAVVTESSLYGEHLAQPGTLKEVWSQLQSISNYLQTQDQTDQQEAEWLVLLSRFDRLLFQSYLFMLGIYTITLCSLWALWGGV
- ASSAY PROTOCOL: Competition binding with [^3H]VUF10166 at 5-HT3AB receptors
MEASURED QUANTITY: inhibition of specific [^3H]VUF10166 binding (in words)

Would you please look over these solved cases?
- COMPOUND: "CN1[C@@H]2CC[C@H]1C[C@@H](OC(=O)c1cc(Cl)cc(Cl)c1)C2"
  EXPERIMENTAL RESULT: "inhibited"
- COMPOUND: "CC(C)(C)[C@]1(O)CC2OC(=O)CC23C(=O)OC2OC(=O)[C@H](O)C231 (some centres unmarked) [Bilobalide]"
  EXPERIMENTAL RESULT: "not"
- COMPOUND: "COc1cc2c3cc1Oc1cc(ccc1O)C[C@@H]1c4c(cc(OC)c(O)c4Oc4ccc(cc4)C[C@@H]3N(C)CC2)CC[N+]1(C)C"
  EXPERIMENTAL RESULT: "inhibited"
- COMPOUND: "CC1C(=O)O[C@H]2[C@H](O)[C@@]34[C@H]5C[C@@H](C(C)(C)C)[C@@]36C(O)C(=O)O[C@H]6O[C@@]4(C(=O)O5)[C@@]12O (some centres unmarked) [Ginkgolide]"
  EXPERIMENTAL RESULT: "not"

Continue with the next compound.
-- ask // query inhibition of specific [^3H]VUF10166 binding (in words) value for entry `CN1CCc2cc3c(cc2[C@H]1[C@@H]1OC(=O)c2c1ccc1c2OCO1)OCO3`
-- reply not

---

- STUDY SYSTEM: 5-HT3A receptor T179C (Homo sapiens, UniProt P46098, T174C)
- Construct: expressed in transfected cells; host or cells: HEK 293
- ASSAY PROTOCOL: Saturation binding of [^3H]VUF10166 at 5-HT3A receptor mutant
- EXPERIMENTAL PARAMETERS: Loop B, read-out: Kd (nM) Mean ± SEM
MEASURED QUANTITY: Kd

-- ask Which Kd reading was recorded for the molecule CN1CCN(c2nc3ccccc3nc2Cl)CC1 [[^3H]VUF10166] ?
-- reply > 10 nM

---

- STUDY SYSTEM: 5-HT3A receptor Y234C (Homo sapiens, UniProt P46098, Y229C)
- Construct: expressed in transfected cells; host or cells: HEK 293
- Sequence (P46098 24-478 Y229C): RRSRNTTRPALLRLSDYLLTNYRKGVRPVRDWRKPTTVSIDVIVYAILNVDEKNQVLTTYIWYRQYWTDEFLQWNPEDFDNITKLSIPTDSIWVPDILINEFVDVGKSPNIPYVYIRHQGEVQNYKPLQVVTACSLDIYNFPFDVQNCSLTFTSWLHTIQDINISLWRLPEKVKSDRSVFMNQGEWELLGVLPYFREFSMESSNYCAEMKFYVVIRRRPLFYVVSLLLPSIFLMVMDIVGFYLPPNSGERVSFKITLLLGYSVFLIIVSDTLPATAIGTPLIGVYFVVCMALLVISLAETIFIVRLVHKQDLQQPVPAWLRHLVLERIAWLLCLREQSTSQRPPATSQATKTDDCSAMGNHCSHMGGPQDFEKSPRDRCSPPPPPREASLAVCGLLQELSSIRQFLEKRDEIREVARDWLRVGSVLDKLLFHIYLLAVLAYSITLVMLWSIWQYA
- ASSAY PROTOCOL: Saturation binding of [^3H]VUF10166 at 5-HT3A receptor mutant
- EXPERIMENTAL PARAMETERS: Loop C, read-out: Kd (nM) Mean ± SEM
- Experimental: Mutagenesis was performed using the QuikChange method (Agilent Technologies Inc., California, USA) on human 5-HT3A cDNA (accession number: P46098) cloned into pcDNA3.1 (Invitrogen, Paisley, UK). Cysteine residues were substituted for amino acids throughout each of the binding loops A–E (Fig. 1). […] All data were analysed using GraphPad Prism 4.03.
MEASURED QUANTITY: Kd

-- ask Observed Kd on 5-HT3A receptor Y234C (Homo sapiens, UniProt P46098, Y229C) for CN1CCN(c2nc3ccccc3nc2Cl)CC1 [[^3H]VUF10166] , please.
-- reply > 10 nM

---

- STUDY SYSTEM: 5-HT3A receptor E236C (Homo sapiens, UniProt P46098, E231C)
- Construct: expressed in transfected cells; host or cells: HEK 293
- ASSAY PROTOCOL: Saturation binding of [^3H]VUF10166 at 5-HT3A receptor mutant
- EXPERIMENTAL PARAMETERS: Loop C, read-out: Kd (nM) Mean ± SEM
MEASURED QUANTITY: Kd

-- ask Dear colleague, I am looking for the recorded Kd of the following compound: CN1CCN(c2nc3ccccc3nc2Cl)CC1 [[^3H]VUF10166]
-- reply > 10 nM

---

pIC50 reference
- STUDY SYSTEM: 5-HT3A receptors (Homo sapiens)
- ASSAY PROTOCOL: Competition binding with [^3H]VUF10166 at 5-HT3A receptors
The scale used: pIC50 is minus the common logarithm of the concentration in molar units.

- SMILES REPRESENTATION: "COc1cc2c3cc1Oc1cc(ccc1O)C[C@@H]1c4c(cc(OC)c(O)c4Oc4ccc(cc4)C[C@@H]3N(C)CC2)CC[N+]1(C)C"
  pIC50: 5.41
- SMILES REPRESENTATION: "O=C1C[C@@H]2OCC=C3CN4CC[C@]56c7ccccc7N1[C@H]5[C@H]2[C@H]3C[C@H]46"
  pIC50: 5.83

# input for lookup
-- ask Look up pIC50 for this molecule: `CN1CCC[C@H]1c1cccnc1`
-- reply 6.81

---

- STUDY SYSTEM: 5-HT3A receptor W183C (Homo sapiens, UniProt P46098, W178C)
- Construct: expressed in transfected cells; host or cells: HEK 293
- ASSAY PROTOCOL: Saturation binding of [^3H]VUF10166 at 5-HT3A receptor mutant
- EXPERIMENTAL PARAMETERS: Loop B, read-out: Kd (nM) Mean ± SEM
MEASURED QUANTITY: Kd

-- ask Find the recorded Kd belonging to CN1CCN(c2nc3ccccc3nc2Cl)CC1 [[^3H]VUF10166] and report it.
-- reply > 10 nM

---

- STUDY SYSTEM: 5-HT3A receptor R58C (Homo sapiens, UniProt P46098, R53C)
- Construct: expressed in transfected cells; host or cells: HEK 293
- ASSAY PROTOCOL: Saturation binding of [^3H]VUF10166 at 5-HT3A receptor mutant
- EXPERIMENTAL PARAMETERS: read-out: Kd (nM) Mean ± SEM
MEASURED QUANTITY: Kd

-- ask Could you share which Kd value was measured for CN1CCN(c2nc3ccccc3nc2Cl)CC1 [[^3H]VUF10166] ?
-- reply > 10 nM

---

- STUDY SYSTEM: 5-HT3A receptors (Homo sapiens, UniProt P46098)
- ASSAY PROTOCOL: biochemical
- Type: binding
- Set-up: expressed in transfected cells; host or cells: HEK 293
- EXPERIMENTAL PARAMETERS: Wild Type, Table 5 series; read-out: Kd (nM) Mean ± SEM
MEASURED QUANTITY: Kd (nM)
The figure you give is taken to be in nM; do not add the unit.

-- ask Quick check: Kd of CN1CCN(c2nc3ccccc3nc2Cl)CC1 [[^3H]VUF10166] ?
-- reply 0.21
